# Target Under Test: c-MYC:MAX bHLHZip heterodimer (MYC 352-437, MAX 22-102) (human, UniProt P01106-1 352-437; P61244 22-102)
# Sequence (P01106 367-452, chain 1 of 2): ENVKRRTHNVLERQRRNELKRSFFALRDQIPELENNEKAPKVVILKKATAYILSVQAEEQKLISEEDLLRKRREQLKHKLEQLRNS
# Sequence (P61244 22-102, chain 2 of 2): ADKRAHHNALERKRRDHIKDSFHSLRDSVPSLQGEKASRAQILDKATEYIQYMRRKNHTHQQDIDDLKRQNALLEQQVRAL
# Procedure Details: NMR titration; unlabeled MYC:MAX dimer titrated into 15N-labeled INI1 RPT1 (147 uM); 1H,15N HSQC; fast exchange; shifts fitted to a single-site binding curve; 25 °C
# Conditions: both partners purified
Measured Metric: pKd
Answers are plain numbers, as −log10 of the molar value.

Req: Supply reported pKd belonging to this binder: INI1/hSNF5 RPT1 (residues 184-258) (domain or fragment, human, UniProt Q12824 184-258, looked up) EVLVPIRLDMEIDGQKLRDAFTWNMNEKLMTPEMFSEILCDDLDLNPLTFVPAIASAIRQQIESYPTDSILEDQS
Resp: 4.36
